Target: human MC3 receptors (Homo sapiens, UniProt P41968)
Construct: stably transfected with full length cDNA encoding human MC1 or MC3 receptors
Sequence (P41968 whole entry): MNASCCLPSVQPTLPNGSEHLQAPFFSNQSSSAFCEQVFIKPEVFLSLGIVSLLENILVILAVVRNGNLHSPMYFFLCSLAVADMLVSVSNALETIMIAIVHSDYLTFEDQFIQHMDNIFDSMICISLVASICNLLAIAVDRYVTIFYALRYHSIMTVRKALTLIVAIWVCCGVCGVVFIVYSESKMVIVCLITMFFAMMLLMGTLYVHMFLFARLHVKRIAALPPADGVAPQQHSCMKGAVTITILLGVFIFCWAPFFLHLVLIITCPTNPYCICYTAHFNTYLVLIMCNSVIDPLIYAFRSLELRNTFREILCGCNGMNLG
Assay: In vitro agonist potency (EC50) at melanocortin receptor type 3, cAMP in recombinant cell line
Measured EC50, listed per entry for reference.
Respond with the bare value in µM.

compound	unitLabel	assayValue
COC(=O)N1CCN(C(=O)[C@@H]2CN(C(C)(C)C)C[C@H]2c2ccc(OC)cc2F)CCCC1c1ccc(Cl)cc1 (stereo partly drawn) [Example 91]	µM	7.38
COc1ccc([C@@H]2CN(c3ccc(C#N)nn3)C[C@H]2C(=O)N2CCC[C@@H](c3ccc(Cl)cc3)N(C(C)=O)CC2)c(F)c1 [Example 67]	µM	0.177
CS(=O)(=O)N1CCN(C(=O)C2CN(c3ccc(=O)[nH]n3)CC2c2ccc(F)cc2F)CCCC1c1ccc(F)cc1 (stereo not drawn) [Example 78]	µM	3.32

GET /value?item= CC(C)C(=O)N1CCN(C(=O)[C@@H]2CN(C(C)(C)C)C[C@H]2c2ccc(F)cc2F)CCC[C@H]1c1ccc(Cl)cc1 [Example 11] &field=EC50 returns 3.39
